kd values, listed per item
Target: EGFR-mFc (Homo sapiens, UniProt P00533)
Experiment: SPR (BIACORE) binding kinetics, receptor-capture format
Settings: 37° C., EGFR-mFc captured, NB=no binding
Experimental: Measurements were conducted on a T100 BIACORE™ instrument. […] In the receptor-capture format, either EGFRvIII-mFc or EGFR-mFc, was captured on the BIACORE™ chip and the respective antibodies flowed over. Kinetic association (ka) and dissociation (kd) rate constants were determined by processing and fitting the data to a 1:1 binding model using Scrubber 2.0 curve fitting software. […]
Numeric only. Scale: s⁻¹

Observe how each entry below is paired with its result.
{"columns": ["molecule", "kd, s⁻¹"],
 "data": [
  ["H1H1911N: human IgG1 Fc anti-EGFRvIII antibody with variable domains 1911; HCVR/LCVR SEQ ID NOs 50/58 (antibody, V domains shown, human IgG1 Fc) VH: QVQLVESGGGVVQPGRSLRLSCAASGFTFSRYGIHWVRQAPGKGLEWVAVIWHDGSNKYYADSVKGRFTISRDNSKNTLYLQMTSLRAEDTAVYYCARDGLEIRDHYYYGMDVWGQGTTVTVSS VL: DIQMTQSPSTLSASVGDRVTITCRASQSTSSWLAWYQQKPGKAPTLLIYKASSLESGVPSKFSGSGSGTEFTLTISSLQPDDFATYYCQQYNRYSRTFGQGTKVEIK", 0.00174],
  ["H1H1913N: human IgG1 Fc anti-EGFRvIII antibody with variable domains 1913; HCVR/LCVR SEQ ID NOs 130/138 (antibody, V domains shown, human IgG1 Fc) VH: QVQLQQWGAGLLKPSETLSLTCAVYGGSFSGDYWSWIRQSPGKGLEWIGEINHSGSTNYNPSLKSRVTISIDTSKNQFSLKLSSVTAADTAVYYCARGGGDYYYGMDVWGLGTTVTVSS VL: AIQMTQSPSSLSASVGDRVTITCRASQGIGNDLGWYQQKPGKAPNLLIYATSSLQSGVPSRFSGSGSGTDFTLTISSLQPEDFATYYCLQDYNYPWTFGQGTKVEIK", "1e-06"]
]}

Let us move to another entry and its kd.
query: Item H1H1915N: human IgG1 Fc anti-EGFRvIII antibody with variable domains 1915; HCVR/LCVR SEQ ID NOs 82/90 (antibody, V domains shown, human IgG1 Fc) VH: QVQLVESGGGVVQPGRSLRLSCAASGFTFSAYAMHWVRQAPGKGLEWVAVIWYDGSNKNYADSVKGRFTVSRDNSKNTLYLEMNSLRAEDTAVYYCARDLMVGVTNYWGQGTLVTVST VL: DVVMTQSPLSLPVALGQPASISCRSSQSLVYTDGNTYLNWFHQRPGQSPRRLIYKVSNRDSGVPDRFTGSGSGTDFTLKISRVEAEDVGVFYCMQGSHWPPYTFGQGTKLEIK : provide kd
result: 0.00801
